// inhibition at 0.1 µM lookup, one value per entry
biological target: 5-HT1B receptor (Homo sapiens, UniProt P28222); construct: expressed in transfected cells; experiment: Binding affinity, 3H-serotonin displacement from membranes of cells expressing 5-HT1B; conditions: 1 h; 3H-serotonin 2.5 nM; selectivity comparison; read-out: percent inhibition at the 5-HT1B receptor
Sequence (P28222 whole entry): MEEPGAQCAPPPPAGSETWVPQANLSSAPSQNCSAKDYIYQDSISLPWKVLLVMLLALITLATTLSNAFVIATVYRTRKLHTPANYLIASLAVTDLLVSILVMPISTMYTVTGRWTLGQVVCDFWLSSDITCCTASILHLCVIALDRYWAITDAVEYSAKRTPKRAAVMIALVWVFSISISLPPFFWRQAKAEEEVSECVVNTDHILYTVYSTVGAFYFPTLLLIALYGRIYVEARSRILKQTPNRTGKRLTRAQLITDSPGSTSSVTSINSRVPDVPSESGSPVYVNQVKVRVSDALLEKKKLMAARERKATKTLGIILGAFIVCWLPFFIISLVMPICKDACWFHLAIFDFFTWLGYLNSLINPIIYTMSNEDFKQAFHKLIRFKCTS

Illustrative cases are given below, each with its answer.
compound=CCN(CC)CCn1ccc2ccc(C3CCSCC3)cc21 observation_type="inhibition at 0.1 µM" observed_result="< 15%"
compound="CCN(CC)CCn1ncc2ccc(-c3cccnc3)cc21 [Example 10h]" observation_type="inhibition at 0.1 µM" observed_result="< 15%"
compound=CCN(CC)CCn1ncc2ccc(-c3ccsc3)cc21 observation_type="inhibition at 0.1 µM" observed_result="< 15%"

What inhibition at 0.1 µM appears in the records for this compound with 5-HT1B receptor (Homo sapiens, UniProt P28222)? `CN(C)CCn1ccc2ccc(C3(O)CCSCC3)cc21`
< 15%

For the record `CN(C)CCn1ncc2ccc(-c3cccs3)cc21` , what value of inhibition at 0.1 µM is listed for 5-HT1B receptor (Homo sapiens, UniProt P28222)?
< 50%

I'm curious: which inhibition at 0.1 µM was measured for `CCN(CC)CCn1ncc2ccc(C3CCOCC3)cc21` tested on 5-HT1B receptor (Homo sapiens, UniProt P28222)?
< 15%

Hi! What's the reported inhibition at 0.1 µM for `c1cc(-c2ccc3cnn(CCN4CCCC4)c3c2)cs1` on 5-HT1B receptor (Homo sapiens, UniProt P28222)?
< 15%

Look up inhibition at 0.1 µM with 5-HT1B receptor (Homo sapiens, UniProt P28222) for this compound: CCN(CC)CCn1ncc2ccc(-c3ccoc3)cc21 [Example 10i]
< 15%
